tested on: XIP peptide (Xip251-270) binding; experiment: small-molecule binders of XIP peptide, primary screen, biochemical, small-molecule microarray, fluorescence 635/667 nm, 0.1 µg/mL protein (AID 1182); details: fluorescent protein binding, 635 nm, higher = more signal, called active from +8 up or from −8 down
Classification field: enter t for composite z-score values not below 0.5, f for values below it.

Before answering, review these 6 worked examples.
| compound | category |
| --- | --- |
| CCCCC=C[C@@H](NC(=O)c1cccs1)c1ccccc1 | f |
| COc1ccc(C#Cc2ccc3c(c2)[C@]2(C(=O)N3)[C@H](c3ccc(O)cc3)N3[C@H](c4ccccc4)[C@H](c4ccccc4)OC(=O)[C@H]3[C@@H]2C(=O)NC[C@H](O)c2ccccc2)cc1 | f |
| [N-]=[N+]=Nc1ccccc1C[C@]1(C(=O)NCCN2CCOCC2)N=C(c2ccc(OCCCO)cc2)O[C@H]1c1ccccc1 | t |
| CC(C)c1ccc(NN2C(C(O)c3c(F)cccc3Cl)C=CC3C(=O)N(c4ccccc4)C(=O)C32)cc1 (configuration not stated) | f |
| C=CC(COC(C)=O)NS(=O)(=O)c1ccc(Br)cc1 (configuration not stated) | f |
| CCCN1C(=O)[C@]2(COC(c3ccc(OCCCO)cc3)=N2)Cc2ccccc21 | t |

Prompt line: # bool: composite z-score of CC(C)=CCCC(C)=CC(O)C1C=CC2C(=O)N(c3ccccc3)C(=O)C2N1Nc1ccccc1 (configuration not stated) >= 0.5
Response line: t

Prompt line: # bool: composite z-score of COCC(=C=CC[C@H](O)c1ccc(OCCO)cc1)C[C@H](O)c1cc(Cl)cc(Cl)c1O >= 0.5
Response line: f

Prompt line: # bool: composite z-score of O=C1OCCC=C[C@H]2OC34C=CCN(Cc5ccccc5)C(=O)[C@H]3N(CCCCCO)C(=O)[C@@H]4C12 (some centres not stated) >= 0.5
Response line: t

Prompt line: # bool: composite z-score of COC(=O)[C@@]1(Cc2ccc(F)cc2)[C@H]2c3cc(C(=O)N(C)C)n(CCc4ccccn4)c3C[C@H]2CN1C(=O)c1ccccc1 >= 0.5
Response line: f

Prompt line: # bool: composite z-score of Cc1ccc(F)cc1S(=O)(=O)N[C@@H]1CCN(Cc2ccc(-c3ccccc3)cc2)C1 >= 0.5
Response line: t

Prompt line: # bool: composite z-score of CCOC(=O)[C@H]1C[C@H]2O[C@@]23C[C@H]1C(=O)N1CCCC1[C@@H]3O[Si](C)(C)C(C)(C)C (some centres not stated) >= 0.5
Response line: f

Prompt line: # bool: composite z-score of CC(C)(C)N1CC=CC23O[C@@H]4C=CCOC(=O)[C@@H]4[C@H]2C(=O)N(CCCCCO)[C@@H]3C1=O (some centres not stated) >= 0.5
Response line: f
